Consider the following IC50 data for Poly [ADP-ribose] polymerase 1 (Homo sapiens, UniProt P09874), collected from several reports.
Each record's IC50 is compared with LOW: < 30 nM; MEDIUM: ≥ 30 nM and < 300 nM; HIGH: ≥ 300 nM to give its class.

Look over these answered cases.
compound	label.value
NC(=O)c1cccc2cn(CC(=O)N3CCN(c4ncc(C(F)(F)F)cn4)CC3)nc12	HIGH
O=c1[nH]cnc2c(F)cccc12	HIGH
Cn1cnnc1C1c2n[nH]c(=O)c3cccc(c23)NC1c1ccccc1 (stereo unspecified)	LOW
Cn1ccnc1C1c2n[nH]c(=O)c3cccc(c23)NC1c1ccc(F)cc1 (stereo unspecified)	LOW

Q: Band of O=C(Nc1cccc2c(=O)[nH]ccc12)[C@H]1CCCNC1 ?
Result: HIGH

Q: Consider O=C(c1cc(Cc2n[nH]c(=O)c3ccccc23)ccc1F)N1CCn2c(nnc2-c2ccc(CN3CCSCC3)o2)C1 . To which IC50 class does it belong?
Result: LOW

Q: Which band does NC(=O)c1cccc2cn(-c3cccc(Cl)c3)nc12 fall in?
Result: LOW

Q: Hey, which category is CC1Cc2cc(F)cc(C(N)=O)c2O1 (racemic) in, do you know?
Result: HIGH

Q: Form: Item = O=c1[nH]c(C2=C[C@H](N3CCC(c4ccc(F)cc4)CC3)CC2)nc2c(Cl)cccc12 ; Class = ?
Result: MEDIUM

----------
// merged dataset of IC50 values, system = Poly [ADP-ribose] polymerase 1 (Homo sapiens, UniProt P09874), multiple refs
Sequence (P09874 whole entry): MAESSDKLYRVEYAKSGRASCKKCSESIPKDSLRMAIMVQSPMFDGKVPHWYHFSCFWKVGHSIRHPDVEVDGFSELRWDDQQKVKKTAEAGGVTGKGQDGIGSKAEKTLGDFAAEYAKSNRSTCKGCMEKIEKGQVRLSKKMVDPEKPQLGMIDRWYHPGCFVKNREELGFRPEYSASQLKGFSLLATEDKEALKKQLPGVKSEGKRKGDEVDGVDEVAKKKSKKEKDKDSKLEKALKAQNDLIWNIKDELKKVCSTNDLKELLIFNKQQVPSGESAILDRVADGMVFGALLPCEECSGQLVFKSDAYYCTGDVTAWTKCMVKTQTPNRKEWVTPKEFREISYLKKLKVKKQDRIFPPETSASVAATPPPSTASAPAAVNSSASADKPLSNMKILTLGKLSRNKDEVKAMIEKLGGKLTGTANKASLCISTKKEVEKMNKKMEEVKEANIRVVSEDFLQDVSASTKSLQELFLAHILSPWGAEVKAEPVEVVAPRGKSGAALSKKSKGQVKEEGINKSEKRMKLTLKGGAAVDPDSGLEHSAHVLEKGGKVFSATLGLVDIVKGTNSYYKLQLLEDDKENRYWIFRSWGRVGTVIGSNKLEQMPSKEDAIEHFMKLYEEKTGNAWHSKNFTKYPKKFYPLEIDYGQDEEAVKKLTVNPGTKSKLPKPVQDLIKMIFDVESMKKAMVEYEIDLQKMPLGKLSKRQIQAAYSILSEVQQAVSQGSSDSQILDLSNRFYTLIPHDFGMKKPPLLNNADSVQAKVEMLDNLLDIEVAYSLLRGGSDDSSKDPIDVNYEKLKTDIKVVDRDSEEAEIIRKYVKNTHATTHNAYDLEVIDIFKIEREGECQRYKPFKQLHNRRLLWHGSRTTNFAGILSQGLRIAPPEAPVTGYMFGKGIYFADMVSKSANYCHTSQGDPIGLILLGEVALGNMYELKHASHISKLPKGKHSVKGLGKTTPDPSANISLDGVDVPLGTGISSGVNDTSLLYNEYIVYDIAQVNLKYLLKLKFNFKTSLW
Unit nM implied. Number only.

Q: Provide IC50, recorded with Poly [ADP-ribose] polymerase 1 (Homo sapiens, UniProt P09874), of O=C(c1cc(Cc2n[nH]c(=O)c3ccccc23)cc(F)c1F)N1CCN(c2cccc(C(F)(F)F)c2)CC1
Result: 0.8

Q: # return IC50 for Cc1noc(C)c1-c1ccc2c(c1)C(c1ccccc1)N(CC(=O)c1nc3c(C(N)=O)cccc3[nH]1)C(=O)N2 (stereo not given) , test system: Poly [ADP-ribose] polymerase 1 (Homo sapiens, UniProt P09874)
Result: 116

Q: With Poly [ADP-ribose] polymerase 1 (Homo sapiens, UniProt P09874) as the test system, provide measured IC50 for this compound: C[C@@H]1Cc2cc(F)cc(C(N)=O)c2O1
Result: 1530

Q: Name the value of IC50 reported for CCN1CCCC12CCN(C(=O)c1cc(Cc3n[nH]c(=O)c(C)c3C)ccc1F)CC2 when tested on Poly [ADP-ribose] polymerase 1 (Homo sapiens, UniProt P09874).
Result: 9.7

Q: State IC50 (Poly [ADP-ribose] polymerase 1 (Homo sapiens, UniProt P09874)) of CC(Oc1ccccc1)C(=O)N1CCN(C(=O)c2cc(COc3ccccc3C(N)=O)ccc2F)CC1 (stereo not given) .
Result: 50

----------
Study the reported IC50 values for Poly [ADP-ribose] polymerase 1 (Homo sapiens, UniProt P09874) given below; they originate from different publications.
Returns: string. Value is label 1 if measured IC50 is below 40 nM, and label 0 if it is greater than or equal to it.

compound	label.value
O=C1NCC2c3c(cccc31)CCN2C(=O)Cc1ccc(Br)cc1 (centres undefined)	label 1
O=c1[nH]c2ccc([N+](=O)[O-])cc2c2ccccc12	label 0
CCN(CC)Cc1ccc(-c2ccc3c(Cl)cc(C(N)=O)n3n2)cc1	label 0
Cc1nn(C)c2[nH]c(=O)c3c(c12)CCCC3	label 1
O=c1[nH]c2cnccc2c2ccccc12	label 0

Q: Hello, is IC50 of the following compound strictly smaller than 40 nM? O=C(c1cccc(Cc2n[nH]c(=O)c3ccccc23)c1)N1CCN(c2ccccn2)CC1
Result: label 1

Q: # TODO verify IC50 < 40 nM strictly for this compound: Cc1cccc2c(=O)[nH]c(-c3ccc(O)cc3)nc12
Result: label 0

Q: Lab note: confirm whether the reported IC50 for this compound is below 40 nM, equality not counting. compound: NC(=O)c1cccc2cn(-c3ccc(CNCCF)cc3)nc12
Result: label 1

Q: API: query returns whether the compound falls strictly under 40 nM in IC50. Query: CC(C)NCc1ccc(-c2cc3c4c(c[nH]c4c2)C(=O)NNC3=O)cc1
Result: label 0

Q: In plain terms, does NC(=O)c1cccc2cc(C(=O)N3CCN(c4nc(-c5cnc(N)cc5C(F)(F)F)nc(N5CCOCC5)n4)CC3)oc12 come in under 40 nM for IC50?
Result: label 1

Q: Does this compound meet the criterion IC50 < 40 nM? NC(=O)c1cc(F)cc2cn(-c3ccc(NC(=O)C4CNC4)cc3)nc12
Result: label 1

Q: In plain terms, does COc1cc(CN2CCN(c3ccc(C(=O)NC4CC4)cc3C)CC2)cc2c1OC(C)C(=O)N2 (racemic) come in under 40 nM for IC50?
Result: label 0

Q: Determine whether this compound shows IC50 lower than 40 nM (ties excluded): CC(C)C[C@H](NC(=O)[C@H](C)NC(=O)c1cc(Cc2n[nH]c(=O)c3ccccc23)ccc1F)B1O[C@@H]2C[C@@H]3C[C@@H](C3(C)C)[C@]2(C)O1
Result: label 0

Q: Would you kindly verify if IC50 of O=C(c1ccc2[nH]c(=O)c3c(c2c1)CCSC3)N1CCN(c2ccncc2)CC1 is strictly less than 40 nM?
Result: label 1
